# System: LoVo
# Measurement notes: CellTiter-Glo cell viability, LoVo
# Type: cell-based
# Conditions used: Homo sapiens; LoVo cells, 72 h with compound
Measure: IC50

Query string: What value of measured IC50 is listed for COc1ccc2c(=O)c(-c3ccc(CCCC[P+](c4ccccc4)(c4ccccc4)c4ccccc4)cc3)coc2c1OC.[Br-] ?
Result string: 0.91 µM

---

# Tested on: NFKB
# Measurement notes: SelectScreen CellSensor pathway inhibition, NFKB
# Assay type: cell-based
# Conditions used: Homo sapiens; NFKB-bla Jurkat, stimulus TNF-alpha
Measure: pIC50
pIC50 field: float, defined as -log10 of concentration (mol/L).

Query string: Query for NFKB: what pIC50 does the record show for COc1ccc2c(=O)c(-c3ccc(CCCC[P+](c4ccccc4)(c4ccccc4)c4ccccc4)cc3)coc2c1OC.[Br-] [SND470] ?
Result string: 5.82

---

# Test system: Oxidative Stress
# Measurement notes: SelectScreen CellSensor pathway inhibition, Oxidative Stress
# Format: cell-based
# Conditions used: Homo sapiens; ARE-bla HepG2, stimulus tBHQ
Measure: IC50 (nM)
Quick reminder: number only, in nM, skip the unit.

Query string: What value of measured IC50 is listed for COc1ccc2c(=O)c(-c3ccc(CCCC[P+](c4ccccc4)(c4ccccc4)c4ccccc4)cc3)coc2c1OC.[Br-] [SND470] ?
Result string: 1350

---

Form field: pIC50 (one value per entry).
# Tested on: HepG2
# Measurement notes: CellTiter-Glo cell viability, HepG2
# Assay type: cell-based
# Conditions used: HepG2 cells, 72 h with compound
# Protocol: Antitumor activity against a panel of cancer cell lines Antitumor activity of the compounds was assessed by using the CellTiter-Glow® Luminescent Cell Viability assay (Promega #G7572) according to the manufacturer's instructions. The compounds were tested at 5 or 6 concentrations in 1:2 dilution increments (highest concentration 10 µM) in triplicate well conditions. […]
pIC50 field: float, defined as -log10 of concentration (mol/L).

Mol smiles: COc1ccc2c(=O)c(-c3ccc(CCCCCCCCCC[P+](c4ccccc4)(c4ccccc4)c4ccccc4)cc3)coc2c1OC.[Cl-]
Measure: pIC50
Observed value: 6.36
//
Mol smiles: COc1ccc2c(=O)c(-c3ccc(CCCCCC[P+](c4ccccc4)(c4ccccc4)c4ccccc4)cc3)coc2c1OC.[Cl-]
Measure: pIC50
Observed value: 6.18

Consider now this further molecule.
Query string: What value of measured pIC50 is listed for COc1ccc2c(=O)c(-c3ccc(CCCCCCCC[P+](c4ccccc4)(c4ccccc4)c4ccccc4)cc3)coc2c1OC ?
Result string: 6.17

---

# System: SK-N-SH
# Measurement notes: CellTiter-Glo cell viability, SK-N-SH
# Assay type: cell-based
# Conditions used: Homo sapiens; SK-N-SH cells, 72 h with compound
Measure: IC50 (µM)
Quick reminder: number only, in µM, skip the unit.

Query string: What value of measured IC50 is listed for COc1ccc2c(=O)c(-c3ccc(CC[P+](c4ccccc4)(c4ccccc4)c4ccccc4)cc3)coc2c1OC [SND550] ?
Result string: 3.69

---

Form field: pIC50 (one value per entry).
# System: A2058
# Measurement notes: CellTiter-Glo cell viability, A2058
# Type: cell-based
# Conditions used: A2058 cells, 72 h with compound
pIC50 field: float, defined as -log10 of concentration (mol/L).

Study these solved cases before continuing.
Mol smiles: COc1ccc2c(=O)c(-c3ccc(CCCCCC[P+](c4ccccc4)(c4ccccc4)c4ccccc4)cc3)coc2c1OC.[Cl-]
Observed value: 6.62
//
Mol smiles: COc1ccc2c(=O)c(-c3cccc(CC[P+](c4ccccc4)(c4ccccc4)c4ccccc4)c3)coc2c1OC
Observed value: 6.16
//
Mol smiles: COc1ccc2c(=O)c(-c3ccc(CCCCCCCCCC[P+](c4ccccc4)(c4ccccc4)c4ccccc4)cc3)coc2c1OC.[Cl-]
Observed value: 6.72
//
Mol smiles: COc1ccc2c(=O)c(-c3ccc(CCCCCCCC[P+](c4ccccc4)(c4ccccc4)c4ccccc4)cc3)coc2c1OC
Observed value: 6.57

Consider now this further compound.
Query string: What value of measured pIC50 is listed for COc1ccc2c(=O)c(-c3cccc(C[P+](c4ccccc4)(c4ccccc4)c4ccccc4)c3)coc2c1OC ?
Result string: 6.01
